Assay: Plasma pharmacokinetics after oral gavage
Type: in vivo
Conditions: female, SD, rat, 1 mg/kg/day, 1mg/kg/day gavage, Week 4
observedProperty: Cmax
Kindly format the answer as number then unit.

// Input: `CC(/C=C/[C@@H]1C[C@]1(C)c1ccc2c(c1)C(C)(C)CCC2(C)C)=C\C(=O)O` . Output its Cmax only.
43.4 ng/mL

====

Experiment: Plasma pharmacokinetics after oral gavage
Assay type: in vivo
Conditions: male, SD, rat, 1 mg/kg/day, Male, 1mg/kg/day gavage, Day 1
observedProperty: Tmax (min)
Quick reminder: number only, in min, skip the unit.

Item `CC(/C=C/[C@@H]1C[C@]1(C)c1ccc2c(c1)C(C)(C)CCC2(C)C)=C\C(=O)O` : provide Tmax
30

====

Test: Plasma pharmacokinetics after oral gavage
Type: in vivo
Conditions: female, SD, rat, 3 mg/kg/day, Female, 3mg/kg/day gavage, Day 1, read-out: AUC0-24
observedProperty: AUC(0-t) (ng·h/mL)
All answers are understood in ng·h/mL, so give the number only.

Indicate the recorded AUC(0-t) value for this molecule: CC(/C=C/[C@@H]1C[C@]1(C)c1ccc2c(c1)C(C)(C)CCC2(C)C)=C\C(=O)O [IRX4204]
975

====

Assay: Plasma pharmacokinetics after oral gavage
Format: in vivo
Conditions: male, SD, rat, 3 mg/kg/day, Male, 3mg/kg/day gavage, Day 1, read-out: AUC0-24
observedProperty: AUC(0-t) (ng·h/mL)
Enter your answer as a number in ng·h/mL; do not include the unit.

Give reported AUC(0-t) value for `CC(/C=C/[C@@H]1C[C@]1(C)c1ccc2c(c1)C(C)(C)CCC2(C)C)=C\C(=O)O`
484

====

Assay: Plasma pharmacokinetics after oral gavage
Format: in vivo
Conditions: female, SD, rat, 10 mg/kg/day, 10 mg/kg/day gavage, Week 4
Procedure: […] Rats were treated with the designated dose by daily gavage. Acute plasma PK was conducted on day one and acute-on-chronic plasma PK was conducted on day 24. […] At the end of dialysis, the plasma and buffer level of IRX4204 were quantified by LC/MS/MS. The LC/MS system was comprised of Waters Acquity Ultra Performance Liquid Chromatography (UPLC) coupled to a XEVO-TQS (Waters). The samples were analyzed by reverse-phase HPLC using a Waters Atlantis T3 column (150 × 2.1mm, 5um). […]
observedProperty: Cmax (ng/mL)
Dear colleague, please return just the value in ng/mL, with no unit written.

Give Cmax for `CC(/C=C/[C@@H]1C[C@]1(C)c1ccc2c(c1)C(C)(C)CCC2(C)C)=C\C(=O)O`
667

====

Experiment: Plasma pharmacokinetics after oral gavage
Type: in vivo
Settings: female, SD, rat, 3 mg/kg/day, 3mg/kg/day gavage, Week 4
observedProperty: Cmax (ng/mL)
Express the result in ng/mL but write the number alone.

Identify Cmax associated with the compound `CC(/C=C/[C@@H]1C[C@]1(C)c1ccc2c(c1)C(C)(C)CCC2(C)C)=C\C(=O)O`
101

====

Test: Plasma pharmacokinetics after oral gavage
Type: in vivo
Conditions: male, SD, rat, 10 mg/kg/day, 10 mg/kg/day gavage, Week 4
observedProperty: Tmax (min)
The reply should contain only the number, in min.

Tell me Tmax reported for `CC(/C=C/[C@@H]1C[C@]1(C)c1ccc2c(c1)C(C)(C)CCC2(C)C)=C\C(=O)O`
15

====

Experiment: Plasma pharmacokinetics after oral gavage
Type: in vivo
Settings: female, SD, rat, 1 mg/kg/day, Female, 1mg/kg/day gavage, Day 1
observedProperty: Cmax (ng/mL)
Express it in ng/mL; write the number only.

Give the reported Cmax for this compound. `CC(/C=C/[C@@H]1C[C@]1(C)c1ccc2c(c1)C(C)(C)CCC2(C)C)=C\C(=O)O`
120

Origin of the recorded values: paper PMC4884932
